These measurements were taken from ChEMBL document CHEMBL1614632.

- Assay comment: clinical
- Experimental setup: human, in vivo, iv
One threshold, 7 h, splits the recorded MRT values: lower ones are rule met, equal or higher ones are rule not met.

Compound	Group label
CN1C(C(=O)Nc2ccccn2)=C(O)c2sccc2S1(=O)=O	rule not met
C[C@H]1O[C@H](O[C@H]2[C@H](O)[C@@H](O)[C@@H](O[C@H]3[C@H](O)[C@@H](O)C(O)O[C@@H]3CO)O[C@@H]2CO)[C@H](O)[C@@H](O)[C@@H]1N[C@H]1C=C(CO)[C@@H](O)[C@H](O)[C@H]1O (some centres not stated)	rule met
NC[C@H]1O[C@H](O[C@H]2[C@H](O)[C@@H](O[C@H]3O[C@H](CO)[C@@H](O)[C@H](N)[C@H]3O)[C@H](N)C[C@@H]2N)[C@H](N)C[C@@H]1O	rule met
O=C(O)Cc1ccccc1Nc1c(Cl)cccc1Cl	rule met
Cc1cc(-n2cccc2)c(S(C)(=O)=O)cc1C(=O)NC(=N)N [ENIPORIDE]	rule met
N[C@H](C(=O)O)[C@@H]1CC(Cl)=NO1	rule not met
CC(=O)O[C@H]1C[C@]2(C)CC[C@H]3[C@@H]4C[C@H](N5CC[N+](C)(C)CC5)[C@H](OC(C)=O)[C@@]4(C)CC[C@@H]3[C@@]2(C)C[C@@H]1N1CC[N+](C)(C)CC1.[Br-].[Br-]	rule met
CC(=O)N[C@@H](CS)C(=O)O	rule met
N[C@@H](Cc1ccc(N(CCCl)CCCl)cc1)C(=O)O	rule met
Cc1cccc(C)c1NC(=O)C(C)N (configuration not stated) [TOCAINIDE]	rule not met
C[C@H]1O[C@@H](O[C@H]2[C@@H](O)C[C@H](O[C@H]3[C@@H](O)C[C@H](O[C@H]4CC[C@@]5(C)[C@H](CC[C@@H]6[C@@H]5C[C@@H](O)[C@]5(C)[C@@H](C7=CC(=O)OC7)CC[C@]65O)C4)O[C@@H]3C)O[C@@H]2C)C[C@H](O)[C@@H]1O	rule not met

====

- Assay comment: clinical
- Experimental setup: human, in vivo, iv, t1/2
The following molecules are listed with their measured half-life values.
Result type: half-life (h)

> print(dat)
                                   molecule  result.type  unit.tag  measured.number
1  CC(CN(C)C)CN1c2ccccc2CCc2ccccc21 (stereo not given) [TRIMIPRAMINE]    half-life         h               23
2       CN(CC(N)=O)C(=O)N(CCCl)N=O [SARCNU]    half-life         h                1
3  N[C@@H](Cc1ccc(O)c(O)c1)C(=O)O [LEVODOPA]    half-life         h              1.3
4  C[C@H](O)C(=O)Nc1c(I)c(C(=O)NC(CO)CO)c(I)c(C(=O)NC(CO)CO)c1I [IOPAMIDOL]    half-life         h              2.1
5  CCN(CC)CCNC(=O)c1cc(Cl)c(N)cc1OC [METOCLOPRAMIDE]    half-life         h              7.2

====

- Assay comment: clinical
- Experimental setup: human, in vivo, iv
With a cut-off of 2 h, any MRT strictly below it is called yes (1); any MRT meeting it or above is called no (0).

Compound	Group label
CN(C)/N=N/c1[nH]cnc1C(N)=O [DACARBAZINE]	no (0)
NS(=O)(=O)c1cc(C2(O)NC(=O)c3ccccc32)ccc1Cl (stereo unspecified) [CHLORTHALIDONE]	no (0)
CCCCCCCCCCNCCN[C@@]1(C)C[C@H](O[C@H]2[C@H](Oc3c4cc5cc3Oc3ccc(cc3Cl)[C@@H](O)[C@@H](NC(=O)[C@@H](CC(C)C)NC)C(=O)N[C@@H](CC(N)=O)C(=O)N[C@H]5C(=O)N[C@H]3C(=O)N[C@H](C(=O)N[C@H](C(=O)O)c5cc(O)c(CNCP(=O)(O)O)c(O)c5-c5cc3ccc5O)[C@H](O)c3ccc(c(Cl)c3)O4)O[C@H](CO)[C@@H](O)[C@@H]2O)O[C@@H](C)[C@H]1O [TELAVANCIN]	no (0)
CCCN1CCCC[C@H]1C(=O)Nc1c(C)cccc1C [ROPIVACAINE]	no (0)
Nc1nc(NC2CC2)c2ncn([C@H]3C=C[C@@H](CO)C3)c2n1 [ABACAVIR]	yes (1)
CC(NCCc1ccc(O)cc1)C(O)c1ccc(O)cc1 (stereo unspecified) [RITODRINE]	no (0)

====

- Assay comment: clinical
- Experimental setup: human, in vivo, iv, t1/2
Result type: half-life (min)

> print(dat)
                                   compound  result.type  unit.tag  measured.number
1                        CC(=O)Nc1ccc(O)cc1    half-life       min              150
2  CC1=NS(=O)(=O)c2cc(Cl)ccc2N1 [DIAZOXIDE]    half-life       min             2880
3            NNc1nncc2ccccc12 [HYDRALAZINE]    half-life       min             57.6
4  C=CCc1ccccc1OCC(O)CNC(C)C (centres undefined)    half-life       min              150
5  CN(C)[C@@H]1C(O)=C(C(N)=O)C(=O)[C@@]2(O)C(O)=C3C(=O)c4c(O)cccc4[C@@](C)(O)[C@H]3[C@H](O)[C@@H]12    half-life       min              600
6  c1ccc2c(c1)OCC(C1=NCCN1)O2 (centres undefined)    half-life       min              252
7              CN(C)CCCN1c2ccccc2Sc2ccccc21    half-life       min              474
8  COCCCOc1ccnc(C[S+]([O-])c2nc3ccccc3[nH]2)c1C (centres undefined)    half-life       min               60
9  COc1ccccc1Oc1c(NS(=O)(=O)c2ccc(C(C)C)cn2)nc(-c2ccnc(-c3nnn[nH]3)c2)nc1OCCO    half-life       min              228

====

- Assay comment: clinical
- Experimental setup: human, in vivo, iv
Result type: log10 of MRT (log10 of the value in h)

> print(dat)
                                   compound   result.type  measured.number
1  Cc1cc(NC(=O)C2=C(O)c3ccccc3S(=O)(=O)N2C)no1  log10 of MRT             1.64
2  C[N+](C)([O-])CCCN1c2ccccc2CCc2ccccc21 [IMIPRAMINOXIDE]  log10 of MRT             0.41
3  COc1ccc2c3c1O[C@H]1C(=O)CC[C@@]4(O)[C@@H](C2)N(C)CC[C@]314  log10 of MRT             0.83
4  COC(=O)CCc1ccc(OCC(O)CNC(C)C)cc1 (stereo not drawn)  log10 of MRT            -1.15
5  CC1(C)S[C@@H]2[C@H](NC(=O)C(c3ccccc3)S(=O)(=O)O)C(=O)N2[C@H]1C(=O)O (stereo partly drawn)  log10 of MRT             0.20
6  Cc1cn([C@H]2C[C@H](N=[N+]=[N-])[C@@H](CO)O2)c(=O)[nH]c1=O  log10 of MRT             0.08
7  C[C@@H](O)[C@H]1C(=O)N2C(C(=O)O)=C(SCCOC(N)=O)S[C@H]12  log10 of MRT            -0.17
8  COc1cccc(OC)c1C(=O)N[C@@H]1C(=O)N2[C@@H]1SC(C)(C)[C@@H]2C(=O)O  log10 of MRT            -0.10

====

- Assay comment: clinical
- Experimental setup: human, in vivo, iv, CL
Result type: log10 of clearance (log10 of the value in mL/min/kg)

Compound	Measured number
CN(C)/N=N/c1ccc(C(=O)O)cc1	0.11
CC(=O)O[C@H]1C[C@]2(C)CC[C@H]3[C@@H]4C[C@H](N5CC[N+](C)(C)CC5)[C@H](OC(C)=O)[C@@]4(C)CC[C@@H]3[C@@]2(C)C[C@@H]1N1CC[N+](C)(C)CC1.[Br-].[Br-]	0.48
CC1CCN(CCCC(=O)c2ccc(F)cc2)CC1	1.66
CCN(CC)CCS(=O)(=O)[C@@H]1CCN2C(=O)c3coc(n3)CC(=O)C[C@H](O)/C=C(C)/C=C/CNC(=O)/C=C/[C@@H](C)[C@@H](C(C)C)OC(=O)[C@@H]12	1.20
CN(C)C(=O)CCS[C@H](SCCC(=O)O)c1cccc(/C=C/c2ccc3ccc(Cl)cc3n2)c1	-0.17
CC[C@H]1OC(=O)[C@H](C)[C@@H](O[C@H]2C[C@@](C)(OC)[C@@H](O)[C@H](C)O2)[C@H](C)[C@@H](O[C@@H]2O[C@H](C)C[C@H](N(C)C)[C@H]2O)[C@](C)(OC)C[C@@H](C)C(=O)[C@H](C)[C@@H](O)[C@]1(C)O	0.86
C[C@@H](O)[C@H]1C(=O)N2C(C(=O)O)=C(SCCN=CN)C[C@H]12 [IMIPENEM ANHYDROUS]	0.48
